# Tested on: HepG2
# assayNotes: cytotoxicity call (relative viability < 0.9)
# measurementSetup: 10 µM
Out of some 39,000 compounds screened, about 3,300 (8.5%) were called active. The full list was thinned out, with actives kept by preference.
Write down the outcome that applies. Available outcomes: yes (1) (active), no (0) (inactive)

Consider the following illustrative entries.
# compoundStructure, answerLabel
measured = [
    ("CO[C@H]1O[C@H](CO)[C@@H](OC(=O)Nc2cccc(F)c2)[C@H](OC(=O)Nc2ccccc2-c2ccccc2)[C@H]1OC(=O)Nc1ccccc1-c1ccccc1", "yes (1)"),
    ("C[C@@H]1CCCCO[C@H](CN(C)Cc2ccc(C(=O)O)cc2)[C@H](C)CN([C@@H](C)CO)C(=O)c2cc(NS(=O)(=O)c3ccc(Cl)cc3)ccc2O1", "no (0)"),
    ("COc1ccc2c3c(n(c2c1)C)[C@H](CO)N(C[C@]13CCN(CC1)C(=O)Nc1ccc(cc1F)F)C(=O)Nc1ccc(cc1)F", "no (0)"),
    ("C[C@@H]1CN([C@@H](C)CO)C(=O)c2cccc(NS(=O)(=O)c3ccc(F)cc3)c2O[C@H]1CN(C)Cc1ccc(Cl)c(Cl)c1", "no (0)"),
]

Request: Called result for CO[C@H]1O[C@H](CO)[C@@H](OC(=O)Nc2cccc(F)c2)[C@H](OC(=O)Nc2ccccc2-c2ccccc2)[C@@H]1OC(=O)Nc1ccccc1-c1ccccc1
Response: no (0)

Request: Called result for C[C@@H]1CCCCO[C@@H](CN(C)C(=O)Nc2cccc3ccccc23)[C@@H](C)CN([C@@H](C)CO)C(=O)c2cc(N(C)C)ccc2O1
Response: no (0)

----------
# Test system: HepG2
# assayNotes: cytotoxicity call (relative viability < 0.9)
# measurementSetup: 10 µM
Out of some 39,000 compounds screened, about 3,300 (8.5%) were called active. The sample holds actives, similar compounds and a random draw of the others, so the mix is not that of the screen.
quantityKind: cytotoxicity call

# compound, cytotoxicity call
data = [
    ("C[C@H](CO)N1C[C@H](C)[C@@H](CN(C)Cc2ccc(Cl)c(Cl)c2)Oc2c(NC(=O)Nc3ccccc3)cccc2C1=O", "inactive"),
    ("COc1ccc(NC(=O)Nc2ccc3c(c2)C(=O)N([C@H](C)CO)C[C@H](C)[C@@H](CN(C)Cc2ccncc2)OCCCC[C@@H](C)O3)cc1", "inactive"),
    ("C[C@@H]1CCCCO[C@H](CN(C)C(=O)Nc2ccc(C(F)(F)F)cc2)[C@@H](C)CN([C@@H](C)CO)C(=O)c2cc(NC(=O)c3ccccc3)ccc2O1", "inactive"),
    ("Cc1noc(C)c1NC(=O)Nc1cccc2c1O[C@@H](CN(C)Cc1ccc(-c3ccccc3)cc1)[C@@H](C)CN([C@@H](C)CO)C2=O", "inactive"),
    ("C[C@@H]1CN([C@@H](C)CO)C(=O)c2cc(C#CCN(C)C)cnc2O[C@@H]1CN(C)C(=O)Nc1cc(F)ccc1F", "inactive"),
]

Request: Fill in the blank: the reported cytotoxicity call of C[C@@H]1CN([C@@H](C)CO)C(=O)c2cccc(NC(=O)Nc3ccc(F)cc3)c2O[C@H]1CN(C)Cc1ccc(Cl)c(Cl)c1 is ____.
Response: active

Request: Fill in the blank: the reported cytotoxicity call of C[C@@H]1CCCCO[C@H](CN(C)S(=O)(=O)c2ccccc2)[C@H](C)CN([C@@H](C)CO)C(=O)c2cc(NS(=O)(=O)c3cn(C)cn3)ccc2O1 is ____.
Response: inactive

Request: Fill in the blank: the reported cytotoxicity call of C[C@@H]1CN([C@@H](C)CO)C(=O)c2cc(NC(=O)CCC(F)(F)F)ccc2O[C@H]1CN(C)C(=O)Nc1ccc(C(F)(F)F)cc1 is ____.
Response: inactive

Request: Fill in the blank: the reported cytotoxicity call of C[C@@H]1CN([C@H](C)CO)C(=O)c2cccc(NC(=O)C3CCCCC3)c2O[C@H]1CN(C)Cc1ccc(C(=O)Nc2ccccc2N)cc1 is ____.
Response: inactive

Request: Fill in the blank: the reported cytotoxicity call of C[C@H]1CN([C@@H](C)CO)C(=O)c2cc(NC(=O)Nc3ccc(F)cc3)ccc2O[C@@H]1CN(C)C(=O)Nc1ccc(C(F)(F)F)cc1 is ____.
Response: inactive

----------
# Tested on: HepG2
# assayNotes: cytotoxicity call (relative viability < 0.9)
# measurementSetup: 10 µM
Hit rate of the full screen: of about 39,000 compounds, about 3,300 (8.5%) were called active. What follows is part of a selection rich in actives, with near analogues and random picks from the rest.
Write down the outcome that applies. Available outcomes: YES for active, NO for inactive

Consider the following illustrative entries.
# compoundStructure, systemName, answerLabel
data = [
    ("O=c1cc(-c2ccccc2)oc2cc(O)ccc12", "HepG2", "NO"),
    ("C[C@@H]1CN([C@@H](C)CO)S(=O)(=O)c2ccc(C#CCN(C)C)cc2O[C@H]1CN(C)Cc1ccccc1F", "HepG2", "NO"),
    ("COc1ccc(CN(C)C[C@@H]2Oc3c(NC(=O)CCCCCC(=O)Nc4ccccc4N)cccc3C(=O)N([C@H](C)CO)C[C@H]2C)cc1", "HepG2", "NO"),
    ("C[C@H](CO)N1C[C@H](C)[C@@H](CN(C)C(=O)Cc2ccccc2)OCCCC[C@H](C)Oc2ccc(NS(=O)(=O)c3ccc(F)cc3)cc2C1=O", "HepG2", "NO"),
    ("Cc1cc(=O)oc2cc(O)ccc12", "HepG2", "NO"),
    ("O=C(CCCCCC(=O)Nc1ccccc1O)N/N=C/C[P+](c1ccccc1)(c1ccccc1)c1ccccc1", "HepG2", "NO"),
    ("COc1ccc(CN(C)C[C@H]2Oc3c(NC(=O)CCCCCC(=O)Nc4ccccc4N)cccc3C(=O)N([C@@H](C)CO)C[C@@H]2C)cc1", "HepG2", "YES"),
    ("O=c1cc(-c2ccccc2)oc2c(O)c(O)ccc12", "HepG2", "YES"),
]

Request: Called result for O=C(CCCCCCC(=O)Nc1ccccc1O)N/N=C/c1cc(Br)c(O)c(Br)c1
Response: NO

Request: Called result for COc1ccc2c(=O)cc(-c3ccccc3)oc2c1OC
Response: NO

Request: Called result for C[C@H](CO)N1C[C@H](C)[C@H](CN(C)Cc2ccc3c(c2)OCO3)Oc2c(NS(=O)(=O)c3cn(C)cn3)cccc2C1=O
Response: NO

Request: Called result for O=C(NO)c1cn(-c2cccc(C(=O)N3CCC4(CC3)C(=O)NCN4c3ccccc3)c2)nn1
Response: YES

Request: Called result for O=C(/C=C/c1cccc(-c2cn(CC(=O)N3CCC4(CC3)C(=O)NCN4c3ccccc3)nn2)c1)NO
Response: NO

Request: Called result for COc1ccc(S(=O)(=O)Nc2ccc3c(c2)C(=O)N([C@H](C)CO)C[C@H](C)[C@H](CN(C)C(=O)c2ccccc2)OCCCC[C@H](C)O3)cc1
Response: NO

Request: Called result for COc1ccc(CN(C)C[C@@H]2Oc3c(NC(=O)CCCCCC(=O)Nc4ccccc4N)cccc3C(=O)N([C@@H](C)CO)C[C@H]2C)cc1
Response: NO

----------
# Test system: HepG2
# assayNotes: cytotoxicity call (relative viability < 0.9)
# measurementSetup: 10 µM
Among all 39,000 compounds or so, about 3,300 (8.5%) were called active. The sample holds actives, similar compounds and a random draw of the others, so the mix is not that of the screen.
Write down the outcome that applies. Available outcomes: label 1 for active, label 0 for inactive

# compoundStructure, answerLabel
rows = [
    ("CC(C)[C@H](NC=O)C(=O)OC[C@H](O)[C@H](O)[C@H](O)[C@H](O)COC(=O)[C@H](NC=O)C(C)C", "label 0"),
]

Request: Called result for C=CCN1C(=O)[C@@]2(O[C@@H](CCO)[C@H]([Si](C)(C)c3ccc(OC)cc3)[C@H]2C)c2cc(N(C=O)c3ccccc3)ccc21
Response: label 1

Request: Called result for C[C@@H]1CN([C@@H](C)CO)C(=O)Cc2cc(NC(=O)Cc3cn(C)c4ccccc34)ccc2O[C@H]1CN(C)Cc1ccc(Oc2ccccc2)cc1
Response: label 1

Request: Called result for C[C@@H]1CN([C@@H](C)CO)C(=O)c2cc(N(C)C)ccc2O[C@@H](C)CCCCO[C@H]1CN(C)C(=O)CCCN(C)C
Response: label 0

----------
# System: HepG2
# assayNotes: cytotoxicity call (relative viability < 0.9)
# measurementSetup: 10 µM
The whole screen tested about 39,000 compounds, of which about 3,300 (8.5%) were called active. The sample as a whole holds a higher share of actives than the screen did.
Write down the outcome that applies. Available outcomes: active, inactive

# compoundStructure, systemName, answerLabel
data = [
    ("C[C@@H]1CCCCO[C@@H](CN(C)Cc2ccc(Cl)c(Cl)c2)[C@H](C)CN([C@H](C)CO)C(=O)c2cc(NC(=O)Nc3ccc4c(c3)OCO4)ccc2O1", "HepG2", "inactive"),
    ("COc1cc(CO)cc(I)c1O[C@H]1C=C(C(=O)NCCO)C[C@@H](NC[C@@H]2CCCO2)[C@@H]1O", "HepG2", "inactive"),
    ("C[C@@H]1CCCCO[C@@H](CN(C)Cc2ccc(Cl)c(Cl)c2)[C@@H](C)CN([C@@H](C)CO)C(=O)c2cc(NC(=O)Nc3ccc4c(c3)OCO4)ccc2O1", "HepG2", "active"),
    ("C[C@H](CO)N1C[C@H](C)[C@@H](CN(C)C(=O)Nc2ccc(F)cc2)OCc2ccccc2-c2c(n(C)c3ccccc23)C1=O", "HepG2", "inactive"),
    ("CO[C@H](C(=O)[C@@H](O)[C@@H](C)O)[C@H]1Cc2cc3cc(O[C@H]4C[C@@H](O[C@H]5C[C@@H](O)[C@@H](O)[C@@H](C)O5)[C@@H](O)[C@@H](C)O4)c(C)c(O)c3c(O)c2C(=O)[C@@H]1O[C@H]1C[C@@H](O[C@H]2C[C@@H](O[C@H]3C[C@@](C)(O)[C@@H](O)[C@@H](C)O3)[C@@H](O)[C@@H](C)O2)[C@@H](O)[C@@H](C)O1", "HepG2", "active"),
]

From here, focus on the item given below.
Request: Called result for Cc1noc(C)c1NC(=O)Nc1ccc2c(c1)CC(=O)N([C@H](C)CO)C[C@@H](C)[C@@H](CN(C)Cc1ccc(C(F)(F)F)cc1)O2
Response: inactive
